Record form. Attribute: pIC50. Fill in for each entry.
target.or.system: hL-CPT1 (Homo sapiens, UniProt P50416)
Sequence (P50416 whole entry): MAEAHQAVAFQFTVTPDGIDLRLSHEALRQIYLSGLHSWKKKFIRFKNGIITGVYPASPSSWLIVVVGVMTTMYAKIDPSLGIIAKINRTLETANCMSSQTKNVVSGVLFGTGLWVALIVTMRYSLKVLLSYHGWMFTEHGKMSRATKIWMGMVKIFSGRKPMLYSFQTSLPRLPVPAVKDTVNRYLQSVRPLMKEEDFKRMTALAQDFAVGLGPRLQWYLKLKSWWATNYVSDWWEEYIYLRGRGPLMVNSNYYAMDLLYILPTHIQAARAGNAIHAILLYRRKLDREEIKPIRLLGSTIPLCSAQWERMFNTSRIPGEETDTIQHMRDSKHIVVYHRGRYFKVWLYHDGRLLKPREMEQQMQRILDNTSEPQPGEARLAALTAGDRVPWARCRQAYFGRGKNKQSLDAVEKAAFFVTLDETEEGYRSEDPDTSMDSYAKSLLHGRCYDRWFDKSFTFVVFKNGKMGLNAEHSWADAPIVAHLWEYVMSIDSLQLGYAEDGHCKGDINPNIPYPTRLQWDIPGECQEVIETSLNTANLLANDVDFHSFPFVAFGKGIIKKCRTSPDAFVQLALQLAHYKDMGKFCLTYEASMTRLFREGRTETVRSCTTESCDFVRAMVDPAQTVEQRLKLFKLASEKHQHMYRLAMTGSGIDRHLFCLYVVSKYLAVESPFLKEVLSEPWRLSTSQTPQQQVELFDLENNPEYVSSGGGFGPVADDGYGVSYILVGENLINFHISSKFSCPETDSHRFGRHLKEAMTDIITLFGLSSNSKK
method: liver CPT1 inhibition, spectrophotometric DTNB (Ellman's reagent) assay
settings: human liver CPT1 expressed in P. pastoris, cell extract; carnitine 500 μM, palmitoyl-CoA 80 μM, DTNB 300 μM
Procedure: The following tests were carried out in order to determine the activity of the compounds of the present invention. Background information on the performed assays can be found in: Jackson et al., 1999, Biochem. J. 341, 483-489 and Jackson et al., 2000, J. Biol. Chem. 275, 19560-19566. […] CPT activity was measured using a spectrophotometric assay using 5,5′-dithio-bis-(2-nitrobenzoic acid) (DTNB) also called Ellman's reagent. […]
pIC50: −log10 of the molar value.

query: With hL-CPT1 (Homo sapiens, UniProt P50416) as the test system, provide measured pIC50 for this molecule: CN(C)C[C@@H](CC(=O)O)NC(=O)CCCCCCCCCc1cccc(F)c1
result: 5.11

query: With hL-CPT1 (Homo sapiens, UniProt P50416) as the test system, provide measured pIC50 for this molecule: COc1ccc(COCCCCCCCC(=O)N[C@H](CC(=O)O)CN(C)C)cc1
result: < 5.00

query: With hL-CPT1 (Homo sapiens, UniProt P50416) as the test system, provide measured pIC50 for this molecule: CN(C)C[C@@H](CC(=O)O)NC(=O)CCCCCCCCOc1ccc(F)c(F)c1
result: 5.78

query: With hL-CPT1 (Homo sapiens, UniProt P50416) as the test system, provide measured pIC50 for this molecule: CN(C)C[C@@H](CC(=O)O)NC(=O)CCCCCCCOCc1ccccc1F
result: < 5.00

query: With hL-CPT1 (Homo sapiens, UniProt P50416) as the test system, provide measured pIC50 for this molecule: CN(C)C[C@@H](CC(=O)O)NC(=O)CCCCCCCCOc1cccc(F)c1F
result: 5.18

query: With hL-CPT1 (Homo sapiens, UniProt P50416) as the test system, provide measured pIC50 for this molecule: Cc1ccc(C)c(CCCCCCCCCC(=O)N[C@H](CC(=O)O)CN(C)C)c1
result: < 5.00

query: With hL-CPT1 (Homo sapiens, UniProt P50416) as the test system, provide measured pIC50 for this molecule: CN(C)C[C@@H](CC(=O)O)NC(=O)CCCCCCCCOc1ccccc1F
result: < 5.00

query: With hL-CPT1 (Homo sapiens, UniProt P50416) as the test system, provide measured pIC50 for this molecule: CN(C)C[C@@H](CC(=O)O)NC(=O)CCCCCCCOCc1ccccc1
result: < 5.00

query: With hL-CPT1 (Homo sapiens, UniProt P50416) as the test system, provide measured pIC50 for this molecule: COc1c(F)c(F)c(COCCCCCCCC(=O)N[C@H](CC(=O)O)CN(C)C)c(F)c1F
result: < 5.00

====

target.or.system: hCPT2 (Homo sapiens, UniProt P23786)
Sequence (P23786 26-658): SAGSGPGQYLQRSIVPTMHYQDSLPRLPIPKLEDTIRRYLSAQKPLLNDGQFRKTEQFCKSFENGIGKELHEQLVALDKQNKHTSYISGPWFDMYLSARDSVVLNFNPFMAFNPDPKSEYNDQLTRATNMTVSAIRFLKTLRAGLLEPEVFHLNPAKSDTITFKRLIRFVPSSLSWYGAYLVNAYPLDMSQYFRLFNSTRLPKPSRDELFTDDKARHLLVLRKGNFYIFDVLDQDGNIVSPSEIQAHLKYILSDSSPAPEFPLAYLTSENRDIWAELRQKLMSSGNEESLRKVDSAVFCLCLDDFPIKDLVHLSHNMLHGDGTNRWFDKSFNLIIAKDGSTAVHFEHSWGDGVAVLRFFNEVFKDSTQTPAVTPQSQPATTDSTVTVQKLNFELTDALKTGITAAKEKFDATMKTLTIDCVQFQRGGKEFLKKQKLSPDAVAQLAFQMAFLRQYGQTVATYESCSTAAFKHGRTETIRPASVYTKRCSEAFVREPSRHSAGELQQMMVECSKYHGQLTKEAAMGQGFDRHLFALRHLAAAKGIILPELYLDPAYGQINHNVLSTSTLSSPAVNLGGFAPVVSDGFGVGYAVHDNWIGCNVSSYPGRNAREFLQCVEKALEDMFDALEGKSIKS
method: CPT2 inhibition, spectrophotometric DTNB (Ellman's reagent) assay
settings: human CPT2 expressed in P. pastoris, cell extract; carnitine 500 μM, palmitoyl-CoA 80 μM, DTNB 300 μM
experimental.endpoint: IC50 (nM)
The figure you give is taken to be in nM; do not add the unit.

query: Return IC50 for the following molecule: CN(C)C[C@@H](CC(=O)O)NC(=O)NCCCCCCCCCc1ccccc1
result: 332

query: Return IC50 for the following molecule: Cc1ccc(C)c(CCCCCCCCCC(=O)N[C@H](CC(=O)O)CN(C)C)c1
result: 317

query: Return IC50 for the following molecule: CN(C)C[C@@H](CC(=O)O)NC(=O)CCCCCCCCCc1cccc(F)c1
result: 98

query: Return IC50 for the following molecule: CN(C)C[C@@H](CC(=O)O)NC(=O)CCCCCCCCCc1ccsc1
result: 118

query: Return IC50 for the following molecule: CN(C)C[C@@H](CC(=O)O)NC(=O)CCCCCCCCCc1ccc(C(F)(F)F)cc1
result: 44

query: Return IC50 for the following molecule: CN(C)C[C@@H](CC(=O)O)NC(=O)CCCCCCCCCc1ccccc1
result: 143

query: Return IC50 for the following molecule: COc1ccc(OCCCCCCCCC(=O)N[C@H](CC(=O)O)CN(C)C)cc1OC
result: 400

query: Return IC50 for the following molecule: CN(C)C[C@@H](CC(=O)O)NC(=O)CCCCCCCCOc1cccc(F)c1F
result: 265

query: Return IC50 for the following molecule: CN(C)C[C@H](CC(=O)O)NC(=O)CCCCCCCCCc1ccccc1
result: 948

query: Return IC50 for the following molecule: CN(C)C[C@@H](CC(=O)O)NC(=O)CCCCCCCCCc1cncs1
result: 1060

query: Return IC50 for the following molecule: CN(C)C[C@@H](CC(=O)O)NC(=O)CCCCCCCOCc1cccc2ccccc12
result: 300

query: Return IC50 for the following molecule: Cc1cccc(C)c1CCCCCCCCCC(=O)N[C@H](CC(=O)O)CN(C)C
result: 241

query: Return IC50 for the following molecule: CN(C)C[C@@H](CC(=O)O)NC(=O)CCCCCCCCCc1cccc2ccccc12
result: 3

query: Return IC50 for the following molecule: CN(C)C[C@@H](CC(=O)O)NC(=O)CCCCCCCCOc1ccccc1F
result: 452

query: Return IC50 for the following molecule: CN(C)C[C@@H](CC(=O)O)NC(=O)CCCCCCCCCc1cccc(F)c1F
result: 22

query: Return IC50 for the following molecule: COc1c(F)c(F)c(COCCCCCCCC(=O)N[C@H](CC(=O)O)CN(C)C)c(F)c1F
result: 2940

query: Return IC50 for the following molecule: CN(C)C[C@@H](CC(=O)O)NC(=O)CCCCCCCCOc1ccccc1
result: 58

query: Return IC50 for the following molecule: CN(C)C[C@@H](CC(=O)O)NC(=O)CCCCCCCCCCc1ccccc1
result: 2100

query: Return IC50 for the following molecule: CN(C)C[C@@H](CC(=O)O)NC(=O)CCCCCCCOCc1ccccc1F
result: 2630

query: Return IC50 for the following molecule: CN(C)C[C@@H](CC(=O)O)NC(=O)CCCCCCCCCCCc1ccccc1
result: 184

query: Return IC50 for the following molecule: CN(C)C[C@@H](CC(=O)O)NC(=O)CCCCCCCCCc1ccc(F)cc1
result: 122

query: Return IC50 for the following molecule: COc1ccc(OCCCCCCCCC(=O)N[C@H](CC(=O)O)CN(C)C)cc1
result: 15

query: Return IC50 for the following molecule: CN(C)C[C@@H](CC(=O)O)NC(=O)CCCCCCCOCc1cccc(F)c1
result: 783

query: Return IC50 for the following molecule: CN(C)C[C@@H](CC(=O)O)NC(=O)CCCCCCCCOc1cccc(F)c1
result: 16

query: Return IC50 for the following molecule: CN(C)C[C@@H](CC(=O)O)NC(=O)CCCCCCCCCCOc1ccccc1
result: 36

query: Return IC50 for the following molecule: COc1ccc(COCCCCCCCC(=O)N[C@H](CC(=O)O)CN(C)C)cc1
result: 152

query: Return IC50 for the following molecule: CN(C)C[C@@H](CC(=O)O)NC(=O)CCCCCCCOCc1cc(F)ccc1F
result: 3490

query: Return IC50 for the following molecule: CN(C)C[C@@H](CC(=O)O)NC(=O)CCCCCCCCOc1ccc(F)c(F)c1F
result: 73

query: Return IC50 for the following molecule: CN(C)C[C@@H](CC(=O)O)NC(=O)CCCCCCCCOc1ccc(-c2ccccc2)cc1
result: 19

query: Return IC50 for the following molecule: CN(C)C[C@@H](CC(=O)O)NC(=O)CCCCCCCCOc1ccc(C(F)(F)F)cc1
result: 170

query: Return IC50 for the following molecule: CN(C)C[C@@H](CC(=O)O)NC(=O)CCCCCCCOCCCc1ccccc1
result: 65

query: Return IC50 for the following molecule: CN(C)C[C@@H](CC(=O)O)NC(=O)CCCCCCCCOc1ccc(F)cc1F
result: 268

query: Return IC50 for the following molecule: CN(C)C[C@@H](CC(=O)O)NC(=O)CCCCCCCCCc1ccccc1F
result: 46

query: Return IC50 for the following molecule: CN(C)C[C@@H](CC(=O)O)NC(=O)CCCCCCCOCc1ccc(F)c(F)c1
result: 910

query: Return IC50 for the following molecule: CN(C)C[C@@H](CC(=O)O)NC(=O)CCCCCCCOCc1ccc(F)cc1
result: 2060

query: Return IC50 for the following molecule: CN(C)C[C@@H](CC(=O)O)NC(=O)CCCCCCCCOCCc1ccccc1
result: 82
